Let's look at some sequences and their measured self-splicing fitness (ln).
assay: self-splicing fitness, log relative to wild type (ln ratio); higher = more splicing; Tetrahymena group I intron in knt gene, E. coli kanamycin selection, DiMSum; sequences stand for … in CUCUCU…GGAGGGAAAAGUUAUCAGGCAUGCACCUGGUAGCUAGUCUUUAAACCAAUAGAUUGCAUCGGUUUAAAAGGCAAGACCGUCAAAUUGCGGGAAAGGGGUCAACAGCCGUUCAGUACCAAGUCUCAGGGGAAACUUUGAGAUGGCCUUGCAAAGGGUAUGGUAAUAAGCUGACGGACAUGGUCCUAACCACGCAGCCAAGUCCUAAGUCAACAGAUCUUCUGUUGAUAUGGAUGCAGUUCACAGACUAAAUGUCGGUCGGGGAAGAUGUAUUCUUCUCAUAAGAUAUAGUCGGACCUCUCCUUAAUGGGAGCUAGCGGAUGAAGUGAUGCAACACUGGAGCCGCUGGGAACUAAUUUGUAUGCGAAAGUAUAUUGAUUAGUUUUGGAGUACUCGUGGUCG; conditions: 37 °C;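 further: selection with 25 µg/mL kanamycin versus none on LB agar overnight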

| sequence_string | self-splicing fitness (ln) |
| --- | --- |
| UUGGAGCAAUAUUACGGCCG | -0.616 |
| ACAGAGCAAUAUUACGCGCG | -1.47 |
| CAUCAGCAAUAUUACGUGAU | -0.987 |
| UACUAGCAAUAUUACGAGAA | -0.769 |
| AGAGAGCAAUAUUACGAUAG | -0.994 |
| CGGAAGCAAUAUUACGACAA | -2.2 |
| GUGGAGCAAUAUUACGGAGC | -0.177 |
| UACUAGCAAUAUUACGAACG | -0.12 |
| UGGAAGCAAUAUUACGCUAA | -0.826 |
| GGUAAGCAAUAUUACGAAGG | -2.84 |
| CUGCAGCAAUAUUACGUCAU | -2.06 |
| AUUGAGCAAUAUUACGUGGC | -3.69 |

* * *

experiment: self-splicing fitness, log relative to wild type (ln ratio); higher = more splicing; Tetrahymena group I intron in knt gene, E. coli kanamycin selection, DiMSum; sequences stand for … in CUCUCU…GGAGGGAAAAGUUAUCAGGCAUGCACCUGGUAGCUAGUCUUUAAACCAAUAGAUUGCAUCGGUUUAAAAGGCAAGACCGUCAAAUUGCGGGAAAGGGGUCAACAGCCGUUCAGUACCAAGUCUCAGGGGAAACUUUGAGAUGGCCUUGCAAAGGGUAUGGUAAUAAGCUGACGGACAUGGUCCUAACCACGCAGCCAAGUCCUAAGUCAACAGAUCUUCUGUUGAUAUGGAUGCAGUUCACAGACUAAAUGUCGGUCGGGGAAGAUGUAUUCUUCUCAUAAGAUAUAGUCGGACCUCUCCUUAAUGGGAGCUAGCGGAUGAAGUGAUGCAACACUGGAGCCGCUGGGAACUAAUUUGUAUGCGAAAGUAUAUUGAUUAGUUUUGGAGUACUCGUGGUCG; conditions: 30 °C
Let's look at some sequences and their measured self-splicing fitness (ln).

| sequence_string | self-splicing fitness (ln) |
| --- | --- |
| CGGCAGCAAUAUUACGACGU | -1.45 |
| CUCAAGCAAUAUUACGUGGU | -3.18 |
| GAUCAGCAAUAUUACGUGCU | -3.41 |
| CCGUAGCAAUAUUACGCUUA | -3.52 |
| UUUUAGCAAUAUUACGUCCG | -2.37 |
